Each recorded value in this set is attributed to the supplement of paper PMC11061612.

tested on: RKO (Colorectal Carcinoma); assay: Bliss excess, mean over the matrix (fraction); higher = more synergy;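 also: after 72 h of two-drug dosing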

COMPOUND	ASSAYED TARGET	Bliss excess
CC1(C)CCC(CN2CCN(c3ccc(C(=O)NS(=O)(=O)c4ccc(NCC5CCOCC5)c([N+](=O)[O-])c4)c(Oc4cnc5[nH]ccc5c4)c3)CC2)=C(c2ccc(Cl)cc2)C1 [Venetoclax] + Cc1cc2ncnn2cc1Nc1ncc2c(n1)n(C1CCOCC1)c(=O)n2C [AZD7648] (first compound max 1 µM, 7x7, partner max 10 µM)	RKO (Colorectal Carcinoma)	-0.0396
CN(CCO)CC[C@H](CSc1ccccc1)Nc1ccc(S(=O)(=O)NC(=O)c2ccc(N3CCC([C@@H](O)c4ccccc4-c4ccc(Cl)cc4)CC3)cc2)cc1S(=O)(=O)C(F)(F)F [AZD4320] + CCN(CCO)CCCOc1ccc2c(Nc3cc(CC(=O)Nc4cccc(F)c4)[nH]n3)ncnc2c1 [AZD2811] (first compound max 1 µM, 7x7, partner max 1 µM)	RKO (Colorectal Carcinoma)	-0.0162
CCN(CCO)CCCOc1ccc2c(Nc3cc(CC(=O)Nc4cccc(F)c4)[nH]n3)ncnc2c1 [AZD2811] + O=C(c1cc(Cc2n[nH]c(=O)c3ccccc23)ccc1F)N1CCN(C(=O)C2CC2)CC1 [Olaparib] (first compound max 1 µM, 7x7, partner max 10 µM)	RKO (Colorectal Carcinoma)	0.0655
Cc1cc2ncnn2cc1Nc1ncc2c(n1)n(C1CCOCC1)c(=O)n2C [AZD7648] + C[C@@H]1COCCN1C2=NC(=NC(=C2)C3(CC3)[S@](=N)(=O)C)C4=C5C=CNC5=NC=C4 [AZD6738] (first compound max 10 µM, 7x7, partner max 10 µM)	RKO (Colorectal Carcinoma)	0.0059
